# Tested on: NCI-H460 lung
# method_notes: NCI tumour cell line growth inhibition, 48 h
value_kind: TGI

{"compound": "CCNC(=O)[C@@H]1CCCN2C(=O)CC[C@H](NC(=O)[C@H](Cc3ccc(OP(=O)(O)O)cc3)NC(C)=O)C(=O)N12", "experimental_result": "> 25 µM"}
{"compound": "COc1cc(-c2cn(S(=O)(=O)c3ccc(C)cc3)c3ccccc23)nc(-c2cn(S(=O)(=O)c3ccc(C)cc3)c3ccccc23)n1", "experimental_result": "> 100 µM"}
{"compound": "CCOc1ccccc1NC(=O)CC1C(=O)Nc2ccccc2S1=O (stereo not given)", "experimental_result": "> 100 µM"}
{"compound": "COc1cc(C2SC(N)=Nc3c2c(C)nn3C(=O)c2ccccc2O)cc(OC)c1OC (stereo not given)", "experimental_result": "> 10 µM"}
{"compound": "COC(=O)CCc1cc(OC)c(O)c(C(Cc2ccc(OC)c(OC)c2)C(=O)OC)c1 (stereo not given)", "experimental_result": "> 100 µM"}

====

# System: OVCAR-8 ovarian
# method_notes: NCI tumour cell line growth inhibition, 48 h
Where a SMILES comes first, the peptide text is derived from it. The star is where a group is joined. Boc = CC(C)(C)OC(=O)*; Bz = O=C(c1ccccc1)*
Attribute: TGI

{"compound": "CC(NC(=O)C(Cc1ccc(OC(=O)c2ccccc2)cc1)NC(=O)OC(C)(C)C)C(=O)NC(Cc1ccccc1)C(=O)NCC(N)=O (configuration not stated) (Boc-Y(Bz)AFG-NH2; configuration not given here)", "rel": "=", "TGI / µM": 58.8}
{"compound": "O=C1c2ccccc2-c2c1c1ccccc1c(=O)n2CCCCNCCCn1c2c(c3ccccc3c1=O)C(=O)c1ccccc1-2", "rel": "=", "TGI / µM": 1.5}
{"compound": "COc1ccc(C(=O)c2cc(OC)c(OC)c(OC)c2)cc1", "rel": "=", "TGI / µM": 31.7}
{"compound": "COc1cc(-c2cn(S(=O)(=O)c3ccc(C)cc3)c3ccccc23)nc(-c2cn(S(=O)(=O)c3ccc(C)cc3)c3ccccc23)n1", "rel": ">", "TGI / µM": 100}
{"compound": "Cc1cccc(NC(=O)CCc2ccc(N3C(N)=NC(N)=NC3(C)C)cc2)c1", "rel": ">", "TGI / µM": 100}
{"compound": "O=c1c2cc(-c3ccccc3)sc2nc2n1N=C(c1ccccc1)CS2", "rel": ">", "TGI / µM": 100}
{"compound": "COc1ccc(C2=CC(c3ccccc3)n3nnnc3N2)cc1 (configuration not stated)", "rel": ">", "TGI / µM": 100}

====

Attribute: TGI
# Test system: LXFL 529 NSCLC
# method_notes: NCI tumour cell line growth inhibition, 48 h
value_kind: TGI

{"molecule": "CN(C)c1ccc2c(=O)c3ccccc3oc2n1", "subject_of_test": "LXFL 529 NSCLC", "experimental_result": "> 100 µM"}
{"molecule": "CN1C(=O)CC(c2cccc(C3CC(=O)N(C)C3=O)n2)C1=O (stereo not drawn)", "subject_of_test": "LXFL 529 NSCLC", "experimental_result": "> 100 µM"}
{"molecule": "CCNC(C)Cc1ccccc1 (stereo not drawn)", "subject_of_test": "LXFL 529 NSCLC", "experimental_result": "> 100 µM"}

====

# Tested on: A498 renal
# method_notes: NCI tumour cell line growth inhibition, 48 h
value_kind: TGI

{"molecule": "NCCNc1c2c(c(NCCN)c3c(CO)c[nH]c13)C(=O)c1ccccc1C2=O", "experimental_result": "> 100 µM"}
{"molecule": "Cc1cc2nc(C(C)C(=O)c3ccc(Cl)cc3)c(=O)[nH]c2cc1C (configuration not stated)", "experimental_result": "> 100 µM"}
{"molecule": "COc1ccc(C2CC(=O)c3c(O)cc(O)cc3O2)cc1O (configuration not stated)", "experimental_result": "> 100 µM"}
{"molecule": "COc1cc(-c2cn(S(=O)(=O)c3ccc(C)cc3)c3ccccc23)nc(-c2cn(S(=O)(=O)c3ccc(C)cc3)c3ccccc23)n1", "experimental_result": "> 100 µM"}
{"molecule": "O=P1(O)C=CC2(CCCC2)O1", "experimental_result": "> 100 µM"}
{"molecule": "O=[N+]([O-])c1nc(-c2ccccn2)[nH]c1[N+](=O)[O-]", "experimental_result": "> 100 µM"}
{"molecule": "CS(=O)(=O)c1ccc(/C=N/NC(N)=S)cc1", "experimental_result": "> 100 µM"}
{"molecule": "Cc1ccc(C2=Nc3cc(C)c(Cl)cc3S(=O)(=O)NN2)cc1", "experimental_result": "> 100 µM"}
{"molecule": "CCOC(=O)c1c2c(c(O)c3ccccc3c(O)n(Cc3ccc(OC)cc3)c1C)C(=O)C=CC2=O", "experimental_result": "> 100 µM"}
{"molecule": "CC(C)/C=C1\\CCC(CN2CCCC2)C1=O (configuration not stated)", "experimental_result": "> 59 µM"}
{"molecule": "Cc1cc(N(CCC#N)CCC#N)ccc1/C=C1N=C(/C=C\\c2ccccc2)OC\\1=O", "experimental_result": "> 100 µM"}
{"molecule": "CC[C@@]1(N(C)C)C(=O)OCc2c1cc1n(c2=O)Cc2cc3ccccc3nc2-1", "experimental_result": "> 100 µM"}
{"molecule": "Nc1c(C(=O)c2cccc(CCCN3CCOCC3)c2)cnn1-c1ccc(F)cc1", "experimental_result": "> 25 µM"}
{"molecule": "CC[C@]12CCCN3CCc4c(n(c5ccccc45)C(=O)C1)[C@@H]32", "experimental_result": "> 65.9 µM"}
{"molecule": "CC(C)(C)OC(=O)NCCCCC(N)C(N)=O (configuration not stated)", "experimental_result": "> 100 µM"}
{"molecule": "CC(C)(C)NNC(=O)/C(=C/c1ccc([N+](=O)[O-])cc1)NC(=O)c1ccccc1", "experimental_result": "> 100 µM"}
{"molecule": "O=C(O)c1ccccc1NC(c1ccccc1)c1ccc2cccnc2c1O (configuration not stated)", "experimental_result": "> 100 µM"}

====

# Test system: TK-10 renal
# method_notes: NCI tumour cell line growth inhibition, 48 h
value_kind: TGI

{"smiles_input": "O=C(O)CCNc1ccccc1C(=O)O", "value_kind": "TGI", "experimental_result": "> 100 µM"}
{"smiles_input": "N#CN=C(N)c1sc2nc3c(c(-c4ccc(Br)cc4)c2c1N)CCCC3", "value_kind": "TGI", "experimental_result": "> 100 µM"}
{"smiles_input": "Cc1c2c(c(C)n1-c1ccccc1)C(=O)N(CCCCN1CCN(c3ccccc3)CC1)C2=O", "value_kind": "TGI", "experimental_result": "> 100 µM"}

====

# Tested on: HOP-62 NSCLC
# method_notes: NCI tumour cell line growth inhibition, 48 h

{"molecule": "O=P1(O)C=CC2(CCCC2)O1", "TGI": "> 100 µM"}
{"molecule": "O=C(OCc1ccccc1CN1CCOCC1)c1cccc(Br)c1", "TGI": "> 100 µM"}
{"molecule": "COc1ccc2nc3cc(Cl)ccc3c(NCCCN(Cc3cc(OC)c(OC)c(OC)c3)Cc3cc(OC)c(OC)c(OC)c3)c2c1", "TGI": "24.4 µM"}
{"molecule": "O=c1sc2c(s1)SSSSS2", "TGI": "> 50 µM"}
{"molecule": "Cc1ccc(C2=Nc3cc(C)c(Cl)cc3S(=O)(=O)NN2)cc1", "TGI": "> 100 µM"}
{"molecule": "COc1cc2c(/C=C3/C(=O)N(C)c4ccccc43)c(Cl)[nH]c2cc1C", "TGI": "3.56 µM"}
{"molecule": "COc1cc(C=O)ccc1Oc1nnnn1-c1ccccc1", "TGI": "> 100 µM"}
{"molecule": "COc1ccc(C2CC(=O)c3c(O)cc(O)cc3O2)cc1O (stereo not drawn)", "TGI": "> 100 µM"}
{"molecule": "COc1ccc2[nH]c(=O)c3c4ccccc4cn3c2c1", "TGI": "0.885 µM"}
{"molecule": "O=C1OC[C@@H]2[C@@H](O)CCCCCN12", "TGI": "> 100 µM"}
{"molecule": "Cc1c(C#N)c2nnn(-c3ccc(Cl)cc3)c(=O)n2c1-c1ccccc1", "TGI": "3.73 µM"}
{"molecule": "Nc1ncnc2c1ncn2C1OC(COP(=O)(O)O)C(O)C1O (stereo not drawn)", "TGI": "> 50 µM"}
{"molecule": "Cc1c(NC(=S)NN)c(=O)n(-c2ccccc2)n1C", "TGI": "> 100 µM"}

====

Attribute: TGI
# Tested on: UO-31 renal
# method_notes: NCI tumour cell line growth inhibition, 48 h

{"compound": "Cc1c(NC(=S)NN)c(=O)n(-c2ccccc2)n1C", "TGI": "> 100 µM"}
{"compound": "CCc1nc(N)nc(N)c1-c1ccc(NCCN)c([N+](=O)[O-])c1", "TGI": "> 100 µM"}
{"compound": "CS(=O)(=O)c1ccc(/C=N/NC(N)=S)cc1", "TGI": "> 100 µM"}
{"compound": "COc1cc2c(/C=C3/C(=O)N(C)c4ccccc43)c(Cl)[nH]c2cc1C", "TGI": "> 58.3 µM"}
{"compound": "CN(C)CCOc1ccc2[nH]c(C(=O)N3CC(CCl)c4c3cc(N)c3ccccc43)cc2c1 (stereo not given)", "TGI": "< 0.01 µM"}

The measurements presented in this section are drawn from PubChem BioAssay (NCI).
